B1: glmS ribozyme (parent)
chain: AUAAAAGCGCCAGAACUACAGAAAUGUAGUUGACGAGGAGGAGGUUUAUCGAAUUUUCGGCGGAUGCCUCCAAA

# Variants of: B1
# protocol description: kcat; higher = faster cleavage; RNA array
# run parameters: with glucosamine-6-phosphate
Variants at the floor of the assay were thinned out.
measured endpoint: kcat (s⁻¹)
One number for each entry, in s⁻¹.

1) U31G U49G
0.000191
2) C50A A53C U57G C58G
6.76e-05
3) A15G G51U C71A
1.45e-05
4) U47G C68G
8.45e-05

Batch: kcat for all items listed.
1. A52C U55G
2. A12C A53U
3. A33G C68A
4. U49G G66U
5. U54G
6. G32U C67A
7. A12U A42G U56A C67U

1. 5.71e-05
2. 0.015
3. 1.39e-05
4. 6.16e-05
5. 0.0504
6. 0.000412
7. 0.004

Batch: kcat for all items listed.
1. A12G A52G
2. A12C U56G
3. G41C U46G
4. A39G G40U U55C C71A
5. U56G U69A
6. U45A C58U
7. U31A U54A

1. 3.09e-05
2. 0.0146
3. 0.000114
4. 0.00728
5. 0.00018
6. 0.000219
7. 0.011

Batch: kcat for all items listed.
1. A12G U56A
2. C10A C71A

[0.00105, "1.51e-05"]

Batch: kcat for all items listed.
1. C50G G62A
2. C10U C70G

0.000121
2.35e-05

Batch: kcat for all items listed.
1. A12U U56A U65G
2. C67U C70U C71U
3. G51A C68G
4. C58G C68U
5. A53C C68U
6. U56G C68A

0.00677
1.14e-05
3.03e-05
4.76e-05
9.65e-05
2.79e-05

Batch: kcat for all items listed.
1. G32U C71U
2. U30C C68U
3. G29U U31A
4. G37C C70G
5. A33C C58G
6. G9A U31A
7. C11U A52U

[0.00136, 0.000128, 0.0048, "1.47e-05", "1.09e-05", "2.13e-05", "5.56e-05"]

Batch: kcat for all items listed.
1. U30A
2. A14G G29U U47G C70G
3. A42U C71U
4. A48U A64G

[0.0142, "8.6e-05", 0.000154, 0.00341]

Batch: kcat for all items listed.
1. A14C G32A
2. A12C G40U
3. G41C C67U C70A
4. U31G G40U

[0.00779, 0.00214, "5.68e-05", 0.00241]
